Source listed as patent US11459338B2.

- target desc: PRMT5/MEP50 (Homo sapiens)
- Construct: Full-length human PRMT5 (NP_006100)
- assay name: PRMT5/MEP50 enzyme assay on peptide substrates (3H-SAM Flashplate)
- test conditions: PRMT5/MEP50 10 nM, H4 1-15aa peptide 100 nM, 3H-SAM 1 μM
pIC50: −log10 of the molar value.
property: pIC50

Fill in the recorded pIC50 for this compound, with PRMT5/MEP50 (Homo sapiens) as test system: Cn1ccc(-c2ccc3nc(C(=O)NC[C@H](O)CN4CCc5ccccc5C4)cn3c2)cc1=O
6.00 to 8.00

Fill in the recorded pIC50 for this compound, with PRMT5/MEP50 (Homo sapiens) as test system: Cn1cc(-c2ccc3nc(C(=O)NC[C@H](O)CN4CCc5ccccc5C4)cn3c2)cn1
< 5.30

Fill in the recorded pIC50 for this compound, with PRMT5/MEP50 (Homo sapiens) as test system: Cn1ccc(-c2ccc3nc(C(=O)NC[C@H](O)[C@@H](O)CN4CCc5ccccc5C4)cn3c2)cc1=O
6.00 to 8.00

Fill in the recorded pIC50 for this compound, with PRMT5/MEP50 (Homo sapiens) as test system: COc1ccc2nc(C(=O)NCC(O)CN3CCc4ccccc4C3)cn2c1 (stereo not shown)
5.30 to 6.00

###

- target desc: PRMT5/MEP50 (Homo sapiens, UniProt O14744)
- Construct: Full-length human PRMT5 (NP_006100)
- Sequence (O14744 whole entry): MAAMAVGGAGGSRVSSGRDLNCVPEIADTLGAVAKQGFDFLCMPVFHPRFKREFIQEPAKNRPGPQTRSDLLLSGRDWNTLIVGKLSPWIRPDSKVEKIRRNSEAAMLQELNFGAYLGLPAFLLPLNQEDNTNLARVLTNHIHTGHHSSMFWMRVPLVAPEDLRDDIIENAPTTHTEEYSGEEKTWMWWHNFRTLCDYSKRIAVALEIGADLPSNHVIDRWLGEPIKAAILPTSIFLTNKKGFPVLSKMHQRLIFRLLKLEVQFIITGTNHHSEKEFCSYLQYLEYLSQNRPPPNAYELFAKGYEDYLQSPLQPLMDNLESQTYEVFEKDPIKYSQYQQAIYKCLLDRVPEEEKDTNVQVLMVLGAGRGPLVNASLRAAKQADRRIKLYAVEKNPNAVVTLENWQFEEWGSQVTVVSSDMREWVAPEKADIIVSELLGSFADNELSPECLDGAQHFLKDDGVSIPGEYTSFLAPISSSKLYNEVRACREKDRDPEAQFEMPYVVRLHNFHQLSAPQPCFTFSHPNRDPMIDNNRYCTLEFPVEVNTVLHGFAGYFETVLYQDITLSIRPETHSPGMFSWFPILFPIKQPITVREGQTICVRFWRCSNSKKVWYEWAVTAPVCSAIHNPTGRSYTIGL
- Sequence (Q9BQA1 whole entry partner): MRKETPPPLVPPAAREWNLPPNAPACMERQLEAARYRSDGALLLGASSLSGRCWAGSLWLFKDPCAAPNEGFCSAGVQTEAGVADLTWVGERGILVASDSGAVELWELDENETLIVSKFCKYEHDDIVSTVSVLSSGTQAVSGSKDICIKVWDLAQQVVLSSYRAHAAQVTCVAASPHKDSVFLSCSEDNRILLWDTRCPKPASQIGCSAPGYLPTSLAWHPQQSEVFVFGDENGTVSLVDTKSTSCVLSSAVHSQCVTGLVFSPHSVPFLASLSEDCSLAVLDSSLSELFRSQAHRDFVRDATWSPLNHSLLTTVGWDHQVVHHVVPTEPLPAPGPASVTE
- assay name: PRMT5/MEP50 enzyme assay on peptide substrates (3H-SAM Flashplate)
- test conditions: PRMT5/MEP50 10 nM, H4 1-15aa peptide 100 nM, 3H-SAM 1 μM
property: IC50

Worked examples, 3 molecules total:
{"molecule": "O=C(NCC(O)CN1CCc2ccccc2C1)c1cn2c(n1)CCCC2 (centres unmarked)", "IC50": "1000 to 5000 nM"}
{"molecule": "Cn1cc(-c2cnc3nc(C(=O)NC[C@H](O)CN4CCc5ccccc5C4)cn3c2)cn1", "IC50": "> 5000 nM"}
{"molecule": "O=C(NC[C@H](O)CN1CCc2ccccc2C1)c1cn2c(n1)CC[C@@H](C(F)(F)F)C2 [Example 121A]", "IC50": "10 to 1000 nM"}

Reported IC50, molecule Cn1cc(-c2ccc3nc(C(=O)NC[C@H](O)CN4CCc5ccccc5C4)cn3c2)ccc1=O : ____
10 to 1000 nM

Reported IC50, molecule CC(C)N1CCn2cc(C(=O)NCC(O)CN3CCc4ccccc4C3)nc2C1 (centres unmarked) : ____
> 5000 nM

Reported IC50, molecule CN(C[C@H](O)CN1CCc2ccccc2C1)C(=O)c1cn2c(n1)CCC(C(F)(F)F)C2 (some centres unmarked) : ____
10 to 1000 nM

Reported IC50, molecule N#Cc1ccc(-c2cn3cc(C(=O)NC[C@H](O)CN4CCc5ccccc5C4)nc3cn2)cc1 : ____
10 to 1000 nM

Reported IC50, molecule O=C(NC[C@H](O)[C@@H](O)CN1CCc2ccccc2C1)c1cn2cc(-c3cnn([C@@H]4CCOC4)c3)ccc2n1 : ____
10 to 1000 nM

###

- target desc: PRMT5/MEP50 (Homo sapiens)
- Construct: Full-length human PRMT5 (NP_006100)
- assay name: PRMT5/MEP50 enzyme assay on peptide substrates (3H-SAM Flashplate)
- test conditions: PRMT5/MEP50 10 nM, H4 1-15aa peptide 100 nM, 3H-SAM 1 μM
property: IC50

Worked examples, 2 molecules total:
{"molecule": "O=C(NC(CO)CCN1CCc2ccccc2C1)c1cn2cc(C(F)(F)F)ccc2n1 (stereo not shown) [Example 100]", "IC50": "1000 to 5000 nM"}
{"molecule": "O=C(NC[C@H](O)CN1CCc2ccccc2C1)c1cn2cc(-c3ccc(F)cc3)ccc2n1 [Example 17]", "IC50": "10 to 1000 nM"}

Reported IC50, molecule NS(=O)(=O)c1ccc2nc(C(=O)NC[C@H](O)CN3CCc4ccccc4C3)cn2c1 [Example 40] : ____
1000 to 5000 nM

Reported IC50, molecule Cc1c(C(=O)NC[C@H](O)CN2CCc3ccccc3C2)nc2cnc(-c3ccn(C)c(=O)c3)cn12 [Example 65] : ____
10 to 1000 nM
